test system: AECO001 (ATCC25922); assay: MIC broth microdilution, AECO001; type: cell-based, E. coli; conditions: Escherichia coli, ATCC25922, read-out: MIC AECO001
measure-name: MIC

INSERT INTO measurements (compound, recorded_result) VALUES
  ('C[C@H](O)[C@H](NC(=O)c1ccc(C#C/C=C/c2ccc(CNC3CC3)cc2)cc1)C(=O)NO', '< 2 µg/mL'),
  ('C[C@@H](O)[C@H](NC(=O)c1ccc(/C=C/C#Cc2ccccc2F)cc1)C(=O)NO', '< 2 µg/mL'),
  ('C[C@@H](N)[C@H](NC(=O)c1ccc(C#C/C=C/c2ccc(F)cc2)cc1)C(=O)NO', '< 2 µg/mL'),
  ('CCOCc1ccc(C#Cc2ccc(C(=O)NC(C(=O)NO)C(C)(C)N)cc2)cc1 (stereo not shown)', '< 2 µg/mL'),
  ('CCCC#CC#Cc1ccc(C(=O)N[C@H](C(=O)NO)[C@@H](C)N)cc1', '< 2 µg/mL'),
  ('CC(=O)NC[C@H](NC(=O)c1ccc(C#C/C=C/c2ccc(CN3CCOCC3)cc2)cc1)C(=O)NO', '< 2 µg/mL'),
  ('CC(C)(N)[C@H](NC(=O)c1ccc(C#CC#Cc2cncnc2)cc1)C(=O)NO', '2 to 16 µg/mL'),
  ('C[C@@H](N)[C@H](NC(=O)c1ccc(C#CC#Cc2cccc(F)c2)cc1)C(=O)NO', '< 2 µg/mL');

For every item below, please supply its MIC.
1. COC1CCN(Cc2ccc(C#Cc3ccc(C(=O)N[C@H](C(=O)NO)[C@@H](C)N)cc3)cc2)CC1
2. C[C@@H](O)[C@H](NC(=O)c1ccc(/C=C/C#Cc2cccc(F)c2)cc1)C(=O)NO
3. CC(C)(N)[C@H](NC(=O)c1ccc(C#CC#Cc2cccc(F)c2)cc1)C(=O)NO
4. C[C@@H](N)[C@H](NC(=O)c1ccc(C#CC#Cc2ccccc2Cl)cc1)C(=O)NO
5. O=C(N[C@H](C(=O)NO)c1ccccc1)c1ccc(C#Cc2ccc(CN3CCOCC3)cc2)cc1
6. CC(C)OCc1ccc(C#Cc2ccc(C(=O)N[C@H](C(=O)NO)[C@@H](C)N)cc2)cc1
7. CC(C)(N)[C@H](NC(=O)c1ccc(C#Cc2ccc(CNC3CC3)cc2)cc1)C(=O)NO
8. Cn1cncc1C#CC#Cc1ccc(C(=O)N[C@H](C(=O)NO)C(C)(C)O)cc1

Result:
1: < 2 µg/mL; 2: < 2 µg/mL; 3: < 2 µg/mL; 4: < 2 µg/mL; 5: < 2 µg/mL; 6: < 2 µg/mL; 7: < 2 µg/mL; 8: < 2 µg/mL

For every item below, please supply its MIC.
1. C[C@@H](NC(=O)CNC1CC1)[C@H](NC(=O)c1ccc(C#Cc2ccccc2)cc1)C(=O)NO
2. NCC(=O)NCc1ccc(C#Cc2ccc(C(=O)N[C@@H](CN)C(=O)NO)cc2)cc1
3. CC(C)(N)[C@H](NC(=O)c1ccc(C#CC#Cc2ccsc2)cc1)C(=O)NO
4. C[C@@H](N)[C@H](NC(=O)c1ccc(C#Cc2ccc(CN3CCc4[nH]ncc4C3)cc2)cc1)C(=O)NO
5. CC(C)(O)[C@H](NC(=O)c1ccc(C#CC#Cc2cncnc2)cc1)C(=O)NO

Result:
1. < 2 µg/mL
2. 16 to 64 µg/mL
3. < 2 µg/mL
4. < 2 µg/mL
5. 2 to 16 µg/mL

For every item below, please supply its MIC.
1. C[C@@H](O)[C@H](NC(=O)c1ccc(Cc2ccc(CN3CCOCC3)cc2)cc1)C(=O)NO
2. C[C@@H](N)[C@H](NC(=O)c1ccc(C#CC#Cc2ccc(N)cc2)cc1)C(=O)NO
3. C[C@@H](N)[C@H](NC(=O)c1ccc(C#CC#Cc2ccc(OC3CC3)cc2)cc1)C(=O)NO
4. O=CN(O)CCNC(=O)c1ccc(C#Cc2ccc(CN3CCOCC3)cc2)cc1
5. CC(C)(N)[C@H](NC(=O)c1ccc(C#Cc2ccc(CN3CCCOCC3)cc2)cc1)C(=O)NO
6. CC(C)(N)[C@H](NC(=O)c1ccc(C#CC#CC2CCNCC2)cc1)C(=O)NO
7. C[C@@H](N)[C@H](NC(=O)c1ccc(CCc2ccc(CN3CCOCC3)cc2)cc1)C(=O)NO

Result:
1: > 64 µg/mL; 2: < 2 µg/mL; 3: < 2 µg/mL; 4: 16 to 64 µg/mL; 5: < 2 µg/mL; 6: 16 to 64 µg/mL; 7: 2 to 16 µg/mL

For every item below, please supply its MIC.
1. C[C@@H](N)[C@H](NC(=O)c1ccc(C#Cc2ccc(CNCC(C)(C)C)cc2)cc1)C(=O)NO
2. CC(C)(N)[C@H](NC(=O)c1ccc(C#CC#CC2CC2)cc1)C(=O)NO
3. C[C@@H](N)[C@H](NC(=O)c1ccc(C#Cc2ccc(CN3CCN(C)CC3)cc2)cc1)C(=O)NO

Result:
1. < 2 µg/mL
2. < 2 µg/mL
3. 2 to 16 µg/mL
